The origin of these recorded values is PubChem BioAssay (NCI).

# Test system: UACC-257 melanoma
# protocol: NCI tumour cell line growth inhibition, 48 h
Think of 30 µM as a floor: if TGI stands on it or above, it is 1 (yes); beneath it, 0 (no).

{"compound": "COc1ccc(NC(=S)NC(=O)c2ccc3c(c2)Sc2ccccc2O3)c([N+](=O)[O-])c1", "assigned_category": "1 (yes)"}
{"compound": "C=C1C(=O)O[C@H]2[C@H]1CC/C(C=Nc1c(N)cc(C(F)(F)F)cc1Br)=C\\CC[C@@]1(C)O[C@@H]21", "assigned_category": "0 (no)"}
{"compound": "COc1cc(NCCCCCCCNC(C)C)c2nccc(C)c2c1", "assigned_category": "1 (yes)"}
{"compound": "CC12CCCC3(CC(=O)C(C)(C)C3C(=O)C1)C2 (stereo not given)", "assigned_category": "1 (yes)"}
{"compound": "COC(=O)c1cc(C#N)[nH]c1-c1cc(Br)cs1", "assigned_category": "0 (no)"}
{"compound": "O=[N+]([O-])c1ccc(-c2ccc(-c3csc(Nc4ccccc4)n3)o2)cc1", "assigned_category": "1 (yes)"}
{"compound": "CCCCn1c(-c2ccc(C(=O)O/N=C(\\N)c3ccc4c(c3)OCO4)cc2)nc(-c2ccccc2)c1-c1ccccc1", "assigned_category": "1 (yes)"}
{"compound": "Oc1[nH]c2ccccc2c1N=NC(=S)Nc1ccc(Cl)cc1", "assigned_category": "1 (yes)"}
{"compound": "O=C(C(Cl)=C(N1CCOCC1)N1CCOCC1)C(Cl)Cl", "assigned_category": "1 (yes)"}
{"compound": "C=C1C[C@@H]2CC[C@@]34C[C@H]5O[C@H]6[C@@H](O3)[C@H]3O[C@H](CC[C@@H]3O[C@H]6[C@@H]5O4)CC(=O)C[C@@H]3[C@@H](OC)[C@@H](C[C@H](O)CN)O[C@H]3C[C@H]3O[C@@H](CC[C@@H]1O2)C[C@@H](C)C3=C", "assigned_category": "1 (yes)"}
{"compound": "COc1nc(C#CC(C)(C)C)nc(OC)n1", "assigned_category": "1 (yes)"}
{"compound": "O=c1[nH]c(=O)n(C2CC(O)C(CO)O2)cc1OCc1ccccc1 (stereo not given)", "assigned_category": "1 (yes)"}
{"compound": "CCOC(=O)C1CCC(=O)N1C(=O)c1ccccc1 (stereo not given)", "assigned_category": "1 (yes)"}
{"compound": "OCc1ccc2c(c1)CC1(Cc3ccc(/C=N/O)cc3C1)C2 (stereo not given)", "assigned_category": "0 (no)"}
{"compound": "CCC(=O)Nc1nc2c(ncn2C2OC(COC(=O)CC)C(OC(=O)CC)C2OC(=O)CC)c(=O)[nH]1 (stereo not given)", "assigned_category": "1 (yes)"}
{"compound": "Cc1cnc2c(c1)C(=O)C1=C(C2=O)C2OC(=O)CC2OC1(C)C (stereo not given)", "assigned_category": "0 (no)"}
{"compound": "C[C@]12CC[C@@H]3c4cc(I)c(O)cc4CC[C@H]3[C@@H]1CC[C@@H]2O", "assigned_category": "0 (no)"}
{"compound": "Cc1ccc(NC(=O)c2cc(S(=O)(=O)N3C(=O)NC(=O)NS3(=O)=O)c(S)cc2Cl)cc1", "assigned_category": "1 (yes)"}
{"compound": "CCNC(=O)COc1ccc(Cl)cc1Cl", "assigned_category": "1 (yes)"}
